Test system: adipocytes
METHOD SUMMARY: Triglyceride accumulation assay in adipocytes
Type: cell-based, human
DETAILS: differentiating adipocytes transfected with oligomeric compound; Table 75
In the oligonucleotide strings, read from the 5' end, every base follows the letter of its sugar. An asterisk marks phosphorothioate; unmarked linkages are phosphodiester. Other units and linkages are bracketed, terminal groups are in braces. A string of capitals states the bases alone. e = 2'-O-(2-methoxyethyl) (MOE); [5mC] = 5-methylcytosine
MEASURE NAME: TG (triglyceride accumulation)

The cases that follow already have their TG (triglyceride accumulation) on record.
[Q] Requested read-out: TG (triglyceride accumulation). Entry: 328135 (eA*e[5mC]*e[5mC]*eG*eA*eA*e[5mC]*eA*eA*eA*eG*eT*e[5mC]*eT*eG*eA*e[5mC]*eA*eG*eG*eA; anti-miR) [compound 328135]
[A] 29 percentage of untreated control (UTC)

[Q] Give the measured TG (triglyceride accumulation) of 327887 (antisense eG*e[5mC]*eG*eA*e[5mC]*e[5mC]*eA*eT*eG*eG*e[5mC]*eT*eG*eT*eA*eG*eA*e[5mC]*eT*eG*eT*eT*eA) [compound 327887] .
[A] 54 percentage of untreated control (UTC)

[Q] For the substance 327902 (antisense eG*eG*e[5mC]*eT*eG*eT*e[5mC]*eA*eA*eT*eT*e[5mC]*eA*eT*eA*eG*eG*eT*e[5mC]*eA*eG) [compound 327902] , what TG (triglyceride accumulation) is on record?
[A] 55 percentage of untreated control (UTC)

[Q] What value of measured TG (triglyceride accumulation) is listed for 344613 (ACACCAAUGCCCUAGGGGAUGCG; anti-miR; all 2'-MOE, all phosphorothioate, methylation of C and T or U not given here) [compound 344613] ?
[A] 47 percentage of untreated control (UTC)

[Q] # get_value(readout='TG (triglyceride accumulation)', item= 328128 (antisense eA*eG*eT*eA*eA*e[5mC]*eT*eT*e[5mC]*eT*eT*eG*e[5mC]*eA*eG*eT*eT*eG*eG*eA) [compound 328128] )
[A] 61 percentage of untreated control (UTC)

Provide each entry's TG (triglyceride accumulation) from the list below.
1. 327949 (antisense e[5mC]*eA*e[5mC]*eA*eA*eA*eT*eT*e[5mC]*eG*eG*eA*eT*e[5mC]*eT*eA*e[5mC]*eA*eG*eG*eG*eT*eA) [compound 327949]
2. 328111 (antisense eT*e[5mC]*e[5mC]*eG*eA*eG*eT*e[5mC]*eG*eG*eA*eG*eG*eA*eG*eG*eA*eG*eG*eA*eA) [compound 328111]
3. 341801 (antisense CCUAUCUCCCCUCUGGACC; all 2'-MOE, all phosphorothioate, methylation of C and T or U not given here) [compound 341801]
4. 328105 (antisense e[5mC]*e[5mC]*eT*e[5mC]*eA*eA*eT*eT*eA*eT*eT*eG*eG*eA*eA*eA*eT*e[5mC]*eA*e[5mC]*eA) [compound 328105]

[A]
["43 percentage of untreated control (UTC)", "65 percentage of untreated control (UTC)", "65 percentage of untreated control (UTC)", "82 percentage of untreated control (UTC)"]
